Values were extracted from patent US20120164137A1.

# Tested system: Human FRA on IGROV-1 human ovarian adenocarcinoma cells (human, UniProt P15328 25-234)
# Sequence (P15328 25-234 limits assumed): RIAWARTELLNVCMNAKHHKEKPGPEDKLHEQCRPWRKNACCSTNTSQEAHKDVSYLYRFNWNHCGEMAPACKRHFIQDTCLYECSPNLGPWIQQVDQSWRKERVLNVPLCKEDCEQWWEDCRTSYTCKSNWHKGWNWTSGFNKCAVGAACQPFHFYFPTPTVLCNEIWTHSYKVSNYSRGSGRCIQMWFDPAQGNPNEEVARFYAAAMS
# Assay name: cell-based or functional assay
Each entry below carries its reported Internalization IC50.
Write the numeric value and follow it with the unit.

Here are 2 binders together with their reported answers.
| Binder | Internalization IC50 |
| --- | --- |
| MORAb-003 anti-FRA antibody, lot NB809-66 (0.5 mM Na butyrate; harvested 13 days after initiation of culture) (antibody, human IgG1, kappa, V domains shown, N-linked neutral glycans at Asn299 in SEQ ID NO: 5) VH: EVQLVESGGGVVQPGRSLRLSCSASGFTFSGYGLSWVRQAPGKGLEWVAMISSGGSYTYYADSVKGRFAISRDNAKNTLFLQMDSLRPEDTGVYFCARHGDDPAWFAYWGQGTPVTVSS VL: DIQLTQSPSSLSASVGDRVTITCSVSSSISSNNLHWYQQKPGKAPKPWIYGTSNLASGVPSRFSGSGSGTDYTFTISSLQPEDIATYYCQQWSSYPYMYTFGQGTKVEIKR | 0.015 µg/mL |
| MORAb-003 anti-FRA antibody, lot NB809-67 (low DO; harvested 13 days after initiation of culture) (antibody, human IgG1, kappa, V domains shown, N-linked neutral glycans at Asn299 in SEQ ID NO: 5) VH: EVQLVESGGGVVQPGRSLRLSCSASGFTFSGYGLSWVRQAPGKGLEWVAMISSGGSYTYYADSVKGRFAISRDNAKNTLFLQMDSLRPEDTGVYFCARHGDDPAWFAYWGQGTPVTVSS VL: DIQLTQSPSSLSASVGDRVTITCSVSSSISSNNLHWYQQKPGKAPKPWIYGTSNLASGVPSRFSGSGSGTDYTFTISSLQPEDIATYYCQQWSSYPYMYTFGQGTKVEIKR | 0.029 µg/mL |

// returns reported Internalization IC50 for input MORAb-003 anti-FRA antibody, lot NB810-12 (low temperature; harvested 14 days after initiation of culture) (antibody, human IgG1, kappa, V domains shown, N-linked neutral glycans at Asn299 in SEQ ID NO: 5) VH: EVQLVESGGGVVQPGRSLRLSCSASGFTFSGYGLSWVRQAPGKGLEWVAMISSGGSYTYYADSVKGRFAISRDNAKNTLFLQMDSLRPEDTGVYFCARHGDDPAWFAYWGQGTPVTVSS VL: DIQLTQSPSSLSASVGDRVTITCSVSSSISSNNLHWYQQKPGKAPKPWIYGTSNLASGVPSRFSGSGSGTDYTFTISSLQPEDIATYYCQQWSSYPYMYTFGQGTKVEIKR
0.025 µg/mL
